- target.or.test.system: AChE (isolated from electric eels) (Electrophorus electricus, UniProt O42275)
- Construct: AChE (isolated from electric eels) (type VI-S lyophilized powder); purchased Sigma-Aldrich type VI-S lyophilized powder; host or cells: isolated from electric eels
- Sequence (O42275 24-633): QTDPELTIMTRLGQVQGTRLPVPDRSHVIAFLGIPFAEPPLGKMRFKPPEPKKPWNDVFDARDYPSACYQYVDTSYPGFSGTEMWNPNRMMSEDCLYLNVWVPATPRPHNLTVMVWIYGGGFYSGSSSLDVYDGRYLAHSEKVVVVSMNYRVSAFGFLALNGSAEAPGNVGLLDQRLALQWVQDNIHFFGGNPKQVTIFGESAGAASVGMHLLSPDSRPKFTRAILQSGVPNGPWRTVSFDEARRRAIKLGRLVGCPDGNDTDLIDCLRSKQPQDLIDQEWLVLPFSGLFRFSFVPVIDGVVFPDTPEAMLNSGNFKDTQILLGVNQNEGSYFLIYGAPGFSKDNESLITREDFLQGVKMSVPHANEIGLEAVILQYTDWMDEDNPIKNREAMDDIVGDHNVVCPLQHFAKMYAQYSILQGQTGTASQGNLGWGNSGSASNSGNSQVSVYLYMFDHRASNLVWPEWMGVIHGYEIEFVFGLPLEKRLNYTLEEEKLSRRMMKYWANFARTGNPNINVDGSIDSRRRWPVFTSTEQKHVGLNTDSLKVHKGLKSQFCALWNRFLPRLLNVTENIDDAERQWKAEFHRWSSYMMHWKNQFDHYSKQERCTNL
- method.notes: biochemical
- Procedure: Inhibition of AChE by the crude methanol extract, fractions and isolated compounds was done as described by Ellman et al. with some modifications. The acetylcholinesterase enzyme activity was measured by spectrophotometric observation of the increase in a yellow colour produced from thiocholine when it reacts with the dithiobisnitrobenzoate ion. […] Percentage of inhibition was calculated by comparing the reaction rates for the sample to the negative control. […]
measure: pIC50
# pIC50: negative log10 of molar concentration; output just the value

[ask] Answer with reported pIC50 of CC1OC(Oc2c(-c3cc(O)c(O)c(O)c3)oc3cc(O)cc(O)c3c2=O)C(O)C(O)C1O (stereo not shown) [Myricetrin-3-O-rhamnoside (1), Myricetrin-3-O-rhamnoside]
[reply] 3.85

---

- target.or.test.system: yeast α-glucosidase (Saccharomyces cerevisiae, UniProt P53341)
- Sequence (P53341 whole entry): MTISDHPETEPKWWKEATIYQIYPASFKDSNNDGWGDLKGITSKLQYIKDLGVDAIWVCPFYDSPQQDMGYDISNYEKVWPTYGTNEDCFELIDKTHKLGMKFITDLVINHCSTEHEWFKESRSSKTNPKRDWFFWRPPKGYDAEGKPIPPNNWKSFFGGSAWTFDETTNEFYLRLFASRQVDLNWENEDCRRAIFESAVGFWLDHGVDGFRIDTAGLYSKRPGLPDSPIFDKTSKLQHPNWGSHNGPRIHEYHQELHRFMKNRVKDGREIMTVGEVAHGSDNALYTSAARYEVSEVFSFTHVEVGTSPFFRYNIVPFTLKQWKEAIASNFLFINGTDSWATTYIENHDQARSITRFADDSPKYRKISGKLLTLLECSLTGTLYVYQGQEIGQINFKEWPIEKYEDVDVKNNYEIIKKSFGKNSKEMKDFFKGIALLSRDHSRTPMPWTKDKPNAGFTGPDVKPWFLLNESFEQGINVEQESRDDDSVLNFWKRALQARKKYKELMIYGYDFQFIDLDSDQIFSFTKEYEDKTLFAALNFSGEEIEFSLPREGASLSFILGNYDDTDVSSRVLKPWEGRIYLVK
# IC50 per record follows
Report only the number, with the unit µM understood.

CC1OC(Oc2c(-c3cc(O)c(O)c(O)c3)oc3cc(O)cc(O)c3c2=O)C(O)C(O)C1O (centres unmarked) [Myricetrin-3-O-rhamnoside (1), Myricetrin-3-O-rhamnoside] ... 170

Consider now this further compound.
[ask] Enter recorded IC50 with yeast α-glucosidase (Saccharomyces cerevisiae, UniProt P53341) for O=C(/C=C/c1ccc(O)cc1)NCCc1c[nH]c2ccc(O)cc12 [Trans-N-(p-coumaroyl) serotonin (4)] here.
[reply] 16.4
